Hey, just so you know, these numbers are from patent US9352013B2.

- Assay Procedure: Example 1: pharmacokinetics after in-clinic subcutaneous dose
- Format: in vivo, human
- Particulars: human, blood, sc, 0.75 mg, 0.75 mg SC, Visit 7; read-out: AUC(0-4h), Median
Measure: AUC(0-t) (ng·h/mL)
Respond numerically; units are ng·h/mL and should not be typed.

CCCC[C@H](NC(C)=O)C(=O)N[C@H]1CC(=O)NCCCC[C@@H](C(=O)O)NC(=O)[C@H](Cc2c[nH]c3ccccc23)NC(=O)[C@H](CCCNC(=N)N)NC(=O)[C@@H](Cc2ccccc2)NC(=O)[C@H](Cc2c[nH]cn2)NC1=O [bremelanotide] has a reported AUC(0-t) of 79
